Target System: HIV-1 JR-CSF Env T394A (HIV-1 (isolate JR-CSF)) (UniProt P20871)
Experiment Notes: cell-based or functional assay
Reported Fold IC50 increase relative to wild-type by item:
Give the number; fold is assumed, so skip it.

Guide cases for Fold IC50 increase relative to wild-type, answers given:
[in] Name the reported Fold IC50 increase relative to wild-type value associated with the binder PGT-126 (antibody, V domains shown) VH: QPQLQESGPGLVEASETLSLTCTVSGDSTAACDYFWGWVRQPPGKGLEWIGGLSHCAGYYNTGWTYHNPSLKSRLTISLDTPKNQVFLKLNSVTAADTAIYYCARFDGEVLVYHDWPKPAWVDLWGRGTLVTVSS VL: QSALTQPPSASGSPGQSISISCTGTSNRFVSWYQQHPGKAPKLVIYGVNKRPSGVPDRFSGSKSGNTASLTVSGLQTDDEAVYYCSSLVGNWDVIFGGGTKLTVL
[out] 0.6

[in] Name the reported Fold IC50 increase relative to wild-type value associated with the binder PGT-128 (antibody, V domains shown) VH: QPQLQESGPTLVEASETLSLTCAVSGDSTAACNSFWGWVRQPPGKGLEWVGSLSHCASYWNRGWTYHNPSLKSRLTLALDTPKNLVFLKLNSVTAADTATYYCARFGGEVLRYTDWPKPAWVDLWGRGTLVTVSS VL: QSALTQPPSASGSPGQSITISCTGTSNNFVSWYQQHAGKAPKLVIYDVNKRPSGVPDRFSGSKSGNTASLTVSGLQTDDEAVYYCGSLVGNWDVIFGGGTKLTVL
[out] 3

Shift focus to the following entry.
[in] Name the reported Fold IC50 increase relative to wild-type value associated with the binder PGT-130 (antibody, V domains shown) VH: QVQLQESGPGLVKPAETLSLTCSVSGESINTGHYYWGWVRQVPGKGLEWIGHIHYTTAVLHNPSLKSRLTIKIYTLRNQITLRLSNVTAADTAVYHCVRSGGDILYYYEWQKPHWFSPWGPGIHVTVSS VL: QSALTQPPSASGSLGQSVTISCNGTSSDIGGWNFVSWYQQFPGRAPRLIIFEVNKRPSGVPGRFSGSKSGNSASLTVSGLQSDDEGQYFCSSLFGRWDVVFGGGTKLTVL
[out] 1.2
